# maps each entry to its viability at 72 h
assay: Cytotoxicity test (MTS); type: cell-based; conditions: human, HT29 colon adenocarcinoma cells, dose of up to 100 μg/mL, read-out: cell viability
Numbered stars: 1 amine (or outer) side, 2 acyl side, 3 side chain; on linkers, the order of the positions; unused ones are H or OH. Square brackets hold non-standard residues; d marks the D form. Peptide text beside a SMILES is read from it. * marks the point of attachment. ξ: configuration not given here. X1 = NCC(O)CCC(N[*:1])C(=O)[*:2]; ΔZArg = N=C(N)NCC/C=C(\N)C(=O)O; ξDab(3-OH) = NCC(O)C(N)C(=O)O; Orn = NCCC[CH](N)C(=O)O; NH(CH2)4NH2 = NCCCCN*
Numbers only here, please. The scale is %.

Here are 2 molecules together with their reported answers.
{"molecule": "N=C(N)NCC/C=C(\\NC(=O)C(CCCCN)NC(=O)C(Cc1cnc[nH]1)NC(=O)C1CCCN1C(=O)C(CCCN)NC(=O)CNC(=O)C(NC(=O)C(NC(=O)C(N)CCCCN)C(O)CN)C(O)CN)C(=O)NC(CCCCN)C(=O)NCCCCN (stereo not drawn) [Odilomycin C] (H-K[ξDab(3-OH)][ξDab(3-OH)]G[Orn]PHK[ΔZArg]K-{NH(CH2)4NH2}; configuration not given here)", "units text": "%", "viability at 72 h": 100}
{"molecule": "N=C(N)NCC/C=C(\\NC(=O)C(CCCCN)NC(=O)C(Cc1cnc[nH]1)NC(=O)C1CCCN1C(=O)C(CCCN)NC(=O)CNC(=O)C(NC(=O)C(NC(=O)C(N)CCCCN)C(O)CN)C(O)CN)C(=O)NC(CCC(O)CN)C(=O)NCCCCN (stereo not drawn) [Odilomycin B] (H-K[ξDab(3-OH)][ξDab(3-OH)]G[Orn]PHK[ΔZArg][X1]-{NH(CH2)4NH2}; configuration not given here)", "units text": "%", "viability at 72 h": 100}

Inquiry: Recorded viability at 72 h of N=C(N)NCC/C=C(\NC(=O)C(CCC(O)CN)NC(=O)C(Cc1cnc[nH]1)NC(=O)C1CCCN1C(=O)C(CCCN)NC(=O)CNC(=O)C(NC(=O)C(NC(=O)C(N)CCCCN)C(O)CN)C(O)CN)C(=O)NC(CCC(O)CN)C(=O)NCCCCN (stereo not drawn) [Odilomycin A] (H-K[ξDab(3-OH)][ξDab(3-OH)]G[Orn]PH[X1][ΔZArg][X1]-{NH(CH2)4NH2}; configuration not given here) , please.
Reply text: 100

---

system: P. aeruginosa; assay: Resistance profile of multiresistant clinical isolates; type: cell-based, Pseudomonas aeruginosa; set-up: key: R: resistant; S: sensitive; I: intermediate; conditions: P. aeruginosa multiresistant clinical isolate 401681
experimental readout: Susceptibility of isolate to antibacterial (R/S/I)

{"substance smiles": "CCC[C@@H]1C[C@@H](C(=O)N[C@@H]([C@H]2O[C@H](SC)[C@H](O)[C@@H](O)[C@H]2O)[C@H](C)Cl)N(C)C1", "measured on": "P. aeruginosa", "test result": "R"}
{"substance smiles": "C[C@H]1[C@H](NC(=O)/C(=N\\OC(C)(C)C(=O)O)c2csc(N)n2)C(=O)N1S(=O)(=O)O", "measured on": "P. aeruginosa", "test result": "I"}
{"substance smiles": "CC[C@H]1OC(=O)[C@H](C)[C@@H](O[C@H]2C[C@@](C)(OC)[C@@H](O)[C@H](C)O2)[C@H](C)[C@@H](O[C@@H]2O[C@H](C)C[C@H](N(C)C)[C@H]2O)[C@](C)(O)C[C@@H](C)C(=O)[C@H](C)[C@@H](O)[C@]1(C)O", "measured on": "P. aeruginosa", "test result": "R"}
{"substance smiles": "C[C@@H](O)[C@H]1C(=O)N2C(C(=O)O)=C(SCCN=CN)C[C@H]12", "measured on": "P. aeruginosa", "test result": "S"}
